From: a melting point compilation (Tetko et al.; mined from patent text by program, amines drawn as free bases though some values may be those of a salt)

assay-metric: melting point

- compound: "Nc1ccc(OCC(COc2ccc(N)cc2)(COc2ccc(N)cc2)COc2ccc(N)cc2)cc1"
  assay-metric: "melting point"
  result: "210 to 211 °C"

# query: melting point of entry `O=C(O)c1cn(C2COC2)c2c(Cl)c(F)c(F)cc2c1=O` > 300 °C

Do the same for `Cc1nonc1-n1cc(C(=O)O)c(=O)c2cc(F)c(Cl)nc21` please 242 to 247 °C

Do the same for `Fc1cccc2c(CCCc3ccc(Cl)cc3)ccnc12` please 97 °C

Do the same for `COC(=O)c1cc(Cl)ccc1N(C)S(=O)(=O)c1ccc(C)cc1` please 65.5 to 67 °C

Do the same for `O=C1CCOc2c1ccc(O)c2Cc1ccccc1` please 176 °C

###

assay-metric: melting point

Study these solved cases before continuing.
- compound: "O=C(Cc1ccc(Cl)cc1)C1(c2ccc(Cl)c(Cl)c2)CCC1"
  melting point: "82 to 84 °C"
- compound: "COc1ccc(C2CN(C)Cc3c(N)cccc32)cc1OC (stereo unspecified)"
  melting point: "143 to 144 °C"
- compound: "Cc1nc(-c2ccc(OC3CCCCO3)cc2)cc(-c2c(Cl)ccc(Cl)c2Cl)c1C#N (stereo unspecified)"
  melting point: "148 to 152 °C"
- compound: "CCOC(=O)CN(CP(=O)(ONC1CCCCC1)ONC1CCCCC1)C(=O)C(F)(F)F"
  melting point: "118 to 123 °C"
- compound: "Cc1nc2ccc(C(=O)O)nc2n1Cc1ccc(-c2ccccc2)cc1"
  melting point: "> 250 °C"

# query: melting point of entry CCC(=O)NC1CCc2c([nH]c3ccccc23)C1 (stereo unspecified) 169 to 170 °C

Do the same for `CC(=O)N1CCC(N(C)C(=O)c2ccc3nonc3c2)CC1` please 173 to 175 °C

Do the same for `O=C1CN(c2ccc(I)cc2)S(=O)(=O)N1` please 191 to 193 °C

###

Below is a list of entries, each paired with its recorded melting point value.

- molecule: "O=C1Nc2ccc(C3CCCCC3)cc2C12OCCO2"
  result: "178 to 180 °C"
- molecule: "Cc1ncc(CN2CCCNC2=C[N+](=O)[O-])s1"
  result: "204 to 207 °C"
- molecule: "CCCCN(CCCC)S(=O)(=O)c1ccc(-n2oc(C)cc2=O)c([N+](=O)[O-])c1"
  result: "84 to 86 °C"
- molecule: "COC(=O)N(CC(=O)Nc1ccc(S(N)(=O)=O)cc1Cl)c1ccccc1"
  result: "196 to 198 °C"
- molecule: "CC(C)c1ccc(-c2nc(-c3cccc(C(=O)O)c3)co2)cc1"
  result: "187 to 189 °C"
- molecule: "CC/C(=C(/c1ccc(O)cc1)c1ccc(OCCN(C)C)cc1)c1ccc(C(C)C)cc1"
  result: "95 to 96 °C"

# query: melting point of entry O=C(CCNC(=O)OCc1ccccc1)NC1C(C(=O)O)OC(n2cnc3c(NC(=O)c4ccccc4)ncnc32)C1O (stereo not given) 136 to 141 °C

Do the same for `COc1cc(OC)nc(Cc2nscc2C(=O)N(C)c2ccccc2)n1` please 92 to 93 °C

Do the same for `COC(=O)C#CC(=O)c1cc(OC)ccc1OC` please 70 to 71 °C

Do the same for `Cc1c(-c2ccccc2)sc2nc(Nc3ccccc3)[nH]c(=O)c12` please 270 to 290 °C

###

assay-metric: melting point

Study these solved cases before continuing.
- molecule: "O=C(O)CCc1cnc2ccccc2c1"
  assay-metric: "melting point"
  result: "180 to 181 °C"
- molecule: "O=C(NC1CCCCC1)N(Cc1ccc(Cl)cc1)C1CCCC1"
  assay-metric: "melting point"
  result: "99 to 101 °C"
- molecule: "CCC1(CC)Cc2cc(OCC(=O)O)c(Cl)c(Cl)c2C1=O"
  assay-metric: "melting point"
  result: "111 °C"
- molecule: "c1cc(OCCCc2nnn[nH]2)cc(OCc2ccc3ccccc3n2)c1"
  assay-metric: "melting point"
  result: "147 to 149 °C"
- molecule: "O=C(O)CCC[C@@H](O)[C@@H](CCc1ccccc1)S(=O)(=O)c1ccccc1 (relative stereo)"
  assay-metric: "melting point"
  result: "100 to 102 °C"
- molecule: "CCOC(=O)c1nc(-c2ccc(Cl)c(OC)c2F)cc(N)c1SC"
  assay-metric: "melting point"
  result: "93 to 94 °C"

# query: melting point of entry `Cc1nc2c(OCc3c(Cl)ccc(S(=O)(=O)N4CCC[C@H]4C(=O)NCCCNC(=O)c4ccc(C(N)=NO)cc4)c3Cl)cccn2c1Cl` 155 °C

Do the same for `N#Cc1cc(Br)ccc1NC(=O)c1cccc(S(=O)(=O)N2CCOCC2)c1` please 185 to 187 °C

Do the same for `O=S(=O)(Nc1cccc(Br)c1)c1cc(S(=O)(=O)Nc2cccc(Br)c2)c2cc(O)ccc2c1` please 198 to 200 °C

###

assay-metric: melting point

Study these solved cases before continuing.
- molecule: "O=C(O)Cc1ccc2oc(-c3ccc(N4C=CC=CN4c4ccc(-c5nc6cc(CC(=O)O)ccc6o5)cc4)cc3)nc2c1"
  melting point: "> 300 °C"
- molecule: "CCOC(=O)C=Cc1cc(C=CC(=O)OC(C)(C)C)cc(Oc2cccnc2)c1"
  melting point: "116 to 118 °C"
- molecule: "O=C(C1CCC(Nc2nccc(-n3nnc4c(-c5ccsc5)cccc43)n2)CC1)N1CCC(O)CC1 (centres undefined)"
  melting point: "233 to 234 °C"

API: the following record is the query input.
# query: melting point of entry `CS(=O)(=O)NCCn1c(CCO)nc2c(N)nc3cccnc3c21` 136 to 138 °C

###

assay-metric: melting point

- molecule: "c1cncc(CC[C@H]2CNCCN2)c1"
  assay-metric: "melting point"
  result: "104 to 110 °C"
- molecule: "Cc1nc(CNC(=O)c2ccnc(N3CCN(Cc4ccc(F)cc4)C3=O)c2)cs1"
  assay-metric: "melting point"
  result: "76 to 78 °C"
- molecule: "Cc1ccccc1-n1ccc2nnc3c(C)cccc3c21"
  assay-metric: "melting point"
  result: "105 to 106 °C"
- molecule: "CSc1cc2n(c1C(=O)c1ccc(Cl)cc1)CCC2C(=O)O (stereo not given)"
  assay-metric: "melting point"
  result: "200 to 201 °C"
- molecule: "Cc1ccc(C)c(CN(c2ncnc3c2cnn3C2CCCO2)C2CCCC2)c1 (stereo not given)"
  assay-metric: "melting point"
  result: "173 to 174 °C"
- molecule: "COc1ccc2c(c1)c1c(n2-c2ccccc2)C(=O)CO1"
  assay-metric: "melting point"
  result: "175 °C"

# query: melting point of entry `CSc1ccc(-c2coc3ccc(-c4nnc(C)o4)cc23)cc1OC(F)(F)F` 185 to 186 °C

Do the same for `CN1C(=O)C(C(=O)Nc2ccc(Oc3nc4ccc(Cl)cc4s3)cc2)C(=O)N(C)C1=S` please 213 to 215 °C

Do the same for `Cc1c(C(=O)Nc2ccc(N3CCCCC3)c(C#N)c2)cnn1-c1ccc(F)cc1` please 196 to 197 °C

Do the same for `CCCCCCCCCCCC(=O)N[C@@H](Cc1ccc(O)cc1)C(=O)OC` please 89 °C

###

assay-metric: melting point

- compound: "COc1ccc2c(c1)C(=O)C(Cc1ccncc1)CO2 (stereo not given)"
  melting point: "91 to 92.5 °C"

# query: melting point of entry O=C1N(Cc2ccc(NC=NO)nc2)c2ccccc2C12COc1cc3c(cc12)OCCO3 (stereo not given) 231 to 232 °C

Do the same for `C=CCc1cc(C(=O)CC(=O)C(C)(C)C)cc(OC)c1O` please 115 to 116 °C

Do the same for CC1=C(C)C(=O)C(C(CCCCCC(=O)O)c2cccnc2)=C(C)C1=O (stereo not given) please 126 to 127 °C

Do the same for `COc1cccc(CCN2C(=O)COc3ccc(C=C4SC(=S)NC4=O)cc32)c1` please 233 to 236 °C

###

Below is a list of entries, each paired with its recorded melting point value.

Study these solved cases before continuing.
- compound: "Cc1c(NC(=O)CC(C)(C)C)cc2c(c1C)OC(C)(C)C2(O)c1ccco1 (stereo unspecified)"
  assay-metric: "melting point"
  result: "108 to 110 °C"
- compound: "COC(=O)Cc1c(Cl)ncnc1OC"
  assay-metric: "melting point"
  result: "64 °C"

# query: melting point of entry `O[C@@H]1CCN(c2ccc3nnn(Cc4ccc5ncccc5c4)c3n2)C1` 167 to 169 °C

###

assay-metric: melting point

- molecule: "COc1cccc2ccc(Cl)nc12"
  melting point: "90 to 92 °C"

# query: melting point of entry `COc1ccc(C(=O)c2ccc(OCc3ccccc3)nc2)c(OC(C)(C)C(=O)OC(C)(C)C)c1` 58 to 60 °C
